target or test system: T1, his-tagged hTfR1 (Acro Biosystems p/n CD1-H5243) (human, UniProt P02786 89-760)
T1 construct: Bought reagent of the SPR assay
T1 sequence (P02786 89-760 limits assumed): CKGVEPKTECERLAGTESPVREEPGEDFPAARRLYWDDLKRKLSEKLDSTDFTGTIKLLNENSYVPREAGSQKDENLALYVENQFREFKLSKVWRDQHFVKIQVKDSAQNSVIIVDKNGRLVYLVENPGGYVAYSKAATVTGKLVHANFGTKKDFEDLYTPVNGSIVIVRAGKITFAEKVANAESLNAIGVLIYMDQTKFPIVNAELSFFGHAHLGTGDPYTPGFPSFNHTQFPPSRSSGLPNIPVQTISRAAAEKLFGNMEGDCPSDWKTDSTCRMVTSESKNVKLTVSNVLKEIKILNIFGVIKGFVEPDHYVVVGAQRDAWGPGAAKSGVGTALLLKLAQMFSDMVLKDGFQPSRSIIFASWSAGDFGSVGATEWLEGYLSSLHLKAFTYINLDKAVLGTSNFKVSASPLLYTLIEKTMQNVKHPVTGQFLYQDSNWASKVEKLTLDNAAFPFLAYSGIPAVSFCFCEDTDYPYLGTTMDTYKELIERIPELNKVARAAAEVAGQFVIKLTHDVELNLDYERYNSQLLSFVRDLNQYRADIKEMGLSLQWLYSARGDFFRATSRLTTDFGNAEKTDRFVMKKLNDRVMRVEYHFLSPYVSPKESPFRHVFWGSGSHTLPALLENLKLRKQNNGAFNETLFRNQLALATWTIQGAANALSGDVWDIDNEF
assay: SPR, Biacore X100, His-tagged TfR1 captured by anti-His
Exercise: state measured koff for each of the binders provided.
Just the number in s⁻¹, nothing appended.

Respond only with koff recorded for Fab0066 (Fab, V domains shown) VH: EVQLVESGGGLVQPGGSLRLSCATSGYTFTSYWVHWVRQAPGKGLEWVAEINPTNGRVNYIEKFKSRITLSVDKSKSTVYLQMNSLRAEDTAVYYCARGTRAYHYWGQGTLVTVSS VL: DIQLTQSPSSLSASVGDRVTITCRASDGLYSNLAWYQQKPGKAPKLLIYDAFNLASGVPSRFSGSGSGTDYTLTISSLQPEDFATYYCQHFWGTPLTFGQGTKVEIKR
0.00139

Using the record for Fab0069 (Fab, V domains shown) VH: EVQLVESGGGLVQPGGSLRLSCATSGYTFTSYWVHWVRQAPGKGLEWVAEINPTNGRSNYIEKFKSRITLSVDKSKSTVYLQMNSLRAEDTAVYYCARGTRAYHYWGQGTLVTVSS VL: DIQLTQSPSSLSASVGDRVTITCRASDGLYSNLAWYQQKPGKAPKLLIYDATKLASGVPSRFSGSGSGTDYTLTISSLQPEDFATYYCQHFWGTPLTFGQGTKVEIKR , state its measured koff.
0.00108
